Exercise: state measured MIC Streptococcus pneumoniae (ATCC 6301) for each of the molecules provided.
Test system: Streptococcus sp.
Assay: in vitro antibacterial evaluation, MIC by broth dilution
Type: cell-based
Settings: broth dilution, 18 hours at 35° C.
Reply numerically in µg/mL, unit not repeated.

Short answer for CC(c1ccccc1)C1NC(=O)CNC(=O)C(CO)NC(=O)C(C(O)C2CN(c3nc4ccccc4o3)C(=N)N2C2OC(CO)C(O)C(O)C2O)NC(=O)C(C(O)C2CNC(=Nc3nc4ccccc4o3)N2)NC(=O)C(Cc2ccc(OC3OC(CO)C(OC4OC5COC6(OC5C(O)C4O)C4CC5CC(C4)CC6C5)C(O)C3O)cc2)NC1=O (stereo not shown) [Example 227] : MIC Streptococcus pneumoniae (ATCC 6301) was 32

Item: CC(c1ccccc1)C1NC(=O)CNC(=O)C(CO)NC(=O)C(C(O)C2CNC(=N)N2C2OC(CO)C(O)C(O)C2O)NC(=O)C(C(O)C2CNC(=N)N2)NC(=O)C(Cc2ccc(OC3OC(CO)C(OC4OC5COC6(CCCCCCCCCCCC6)OC5C(O)C4O)C(O)C3O)cc2)NC1=O (stereo not shown) [Example 210] | MIC Streptococcus pneumoniae (ATCC 6301): 0.25

Just so you know, measured MIC Streptococcus pneumoniae (ATCC 6301) for CC(c1ccccc1)C1NC(=O)CNC(=O)C(CO)NC(=O)C(C(O)C2CN(Cc3ccc4ccccc4c3)C(=N)N2C2OC(CO)C(O)C(O)C2O)NC(=O)C(C(O)C2CNC(=N)N2)NC(=O)C(Cc2ccc(OC3OC(CO)C(OC4OC5COC6(OC5C(O)C4O)C4CC5CC(C4)CC6C5)C(O)C3O)cc2)NC1=O (stereo not shown) [Example 78] came out at 1
